Reported values of EC50 for individual entries
- Test Target: GLP-1R (Homo sapiens, UniProt P43220)
- Construct: host or cells: GLP-1R CRE-bla CHO-K1 cells
- Sequence (P43220 24-463): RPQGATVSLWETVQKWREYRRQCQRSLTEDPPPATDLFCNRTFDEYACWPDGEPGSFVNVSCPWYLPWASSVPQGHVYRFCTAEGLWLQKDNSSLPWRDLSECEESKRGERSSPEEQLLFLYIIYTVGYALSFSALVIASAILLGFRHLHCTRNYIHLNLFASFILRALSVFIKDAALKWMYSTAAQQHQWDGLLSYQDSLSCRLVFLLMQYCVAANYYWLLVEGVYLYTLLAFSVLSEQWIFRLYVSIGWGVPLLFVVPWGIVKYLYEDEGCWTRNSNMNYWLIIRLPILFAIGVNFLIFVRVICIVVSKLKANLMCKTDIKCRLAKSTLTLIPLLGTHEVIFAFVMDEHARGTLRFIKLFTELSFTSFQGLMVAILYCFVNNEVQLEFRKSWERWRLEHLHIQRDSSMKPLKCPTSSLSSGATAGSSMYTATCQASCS
- Sequence (P01275 100-127 partner limits assumed): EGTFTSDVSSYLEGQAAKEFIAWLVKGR
- Protocol Text: EC20 GLP-1(9-36) PAM cAMP assay: dose response of compound in the presence of fixed concentration of GLP-1(9-36)
- Format: cell-based
- Condition: GLP-1R CRE-bla CHO-K1 cells, compound dose response with fixed concentration of GLP-1(9-36), read-out: EC20 GLP-1(9-36) PAM EC50
- Excerpt: EC20 GLP-1(9-36) PAM cAMP Assay: Dose Response of Compound in the Presence of Fixed Concentration of GLP-1 (9-36). […]

C[C@@H](NC(=O)[C@H](Cc1ccc(-c2ncc(N3CCN(c4ccc(C(C)(C)C)cc4)C3=O)cn2)cc1)NC(=O)c1ccc(C(C)(C)C)s1)C(=O)O :: < 800 nM
COc1ccc(C2CCN(c3cnc(-c4ccc(C[C@H](NC(=O)c5ccc(C(C)(C)C)s5)C(=O)N5CC(C(=O)O)C5)cc4)nc3)CC2)cc1 :: 800 to 2500 nM
CC(C)C1CCN(c2cnc(-c3ccc(CC(NC(=O)c4ccc(C(C)(C)C)s4)C(=O)N4CC(C(=O)O)C4)cc3)nc2)CC1 (stereo not drawn) :: 800 to 2500 nM
CC[C@H]1CC[C@H](c2ccc(-c3cnc(-c4ccc(C[C@H](NC(=O)c5cnn(C(C)(C)C)c5)C(=O)O)cc4)nc3)cc2)CC1 :: < 800 nM
CCCc1ccc(-c2ccc(-c3cnc(-c4ccc(C[C@H](NC(=O)c5ccc(S(C)(=O)=O)cc5)C(=O)N5CC(C(=O)O)C5)cc4)nc3)c(F)c2)cc1 :: < 800 nM

QUERY: EC50 lookup needed for CCC[C@H]1CC[C@H](C2CCN(c3cnc(-c4ccc(C[C@H](NC(=O)c5ccc(C(C)(C)C)s5)C(=O)N[C@H](C)C(N)=O)cc4)nc3)CC2)CC1 , thanks.
RESULT: 800 to 2500 nM

QUERY: Could you tell me which EC50 is on file for CC(C)(C)c1ccc(C(=O)N[C@@H](Cc2ccc(-c3ncc(-c4ccc(-c5ccc(C6CCC6)cc5)cc4F)cn3)cc2)C(=O)N2CC(C(=O)O)C2)s1 ?
RESULT: < 800 nM

QUERY: What measured EC50 goes with CC(C)(C)c1ccc(C(=O)N[C@@H](Cc2ccc(-c3ncc(-c4ccc(-c5ccc(OC(F)(F)F)cc5F)cc4F)cn3)cc2)C(=O)N2CC(C(=O)O)C2)s1 ?
RESULT: < 800 nM

QUERY: Which EC50 is listed for C[C@@H](NC(=O)[C@H](Cc1ccc(-c2ncc(-c3ccc4c(c3)Cc3ccccc3-4)cn2)cc1)NC(=O)c1ccc(C(C)(C)C)s1)C(=O)O ?
RESULT: 800 to 2500 nM

QUERY: Which EC50 is listed for CC(C)Oc1ccc(-c2ccc(-c3cnc(-c4ccc(C[C@H](NC(=O)c5ccc(C(C)(C)C)s5)C(=O)N[C@H](C)C(=O)O)cc4)nc3)cc2)cc1 ?
RESULT: 800 to 2500 nM

QUERY: For the compound CCCc1ccc(-c2ccc(-c3cnc(-c4ccc(C[C@H](NC(=O)c5ccc(C6CC6)cc5)C(=O)N5CC(C(=O)O)C5)cc4)nc3)c(F)c2)cc1 , what EC50 is on record?
RESULT: < 800 nM

QUERY: Which EC50 value belongs to CC(C)(C)c1ccc(C(=O)N[C@@H](Cc2ccc(-c3ncc(N4CCC(c5cccc(Cl)c5)CC4)cn3)cc2)C(=O)N2CC(C(=O)O)C2)s1 ?
RESULT: 800 to 2500 nM
